The measurements presented in this section are drawn from patent US12084451B2.

Assign EC50 to each entry below.
- target of assay: hGABAA α1β3γ2 (Homo sapiens, UniProt P14867+P18507+P28472)
- Sequence (P14867 28-456, one chain of several): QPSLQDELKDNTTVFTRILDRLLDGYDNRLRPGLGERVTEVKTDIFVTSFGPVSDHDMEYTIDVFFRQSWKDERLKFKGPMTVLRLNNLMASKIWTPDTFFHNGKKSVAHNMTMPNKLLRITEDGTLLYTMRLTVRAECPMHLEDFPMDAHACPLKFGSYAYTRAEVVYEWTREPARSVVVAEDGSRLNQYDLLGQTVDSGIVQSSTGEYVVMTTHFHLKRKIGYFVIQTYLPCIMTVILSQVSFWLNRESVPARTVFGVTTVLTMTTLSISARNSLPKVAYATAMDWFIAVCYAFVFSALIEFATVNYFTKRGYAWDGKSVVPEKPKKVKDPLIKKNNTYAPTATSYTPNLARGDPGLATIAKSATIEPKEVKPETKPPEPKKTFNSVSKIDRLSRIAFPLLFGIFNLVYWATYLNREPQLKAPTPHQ
- run description: hGABAA α1β3γ2 IonFlux HT Agonist Assay
- Format: cell-based
- assay conditions: agonist activation of channel currents; read-out: Estimated EC50
- Text: Ligand-gated ion channel targets were hGABAA α2β3γ2 and hGABAA α1β3γ2. Electrophysiological assays conducted to profile two compounds for agonist activities on hGABAA α2β3γ2 and seven compounds for agonist activities on hGABAA α1β3γ2 using the IonFlux HT electrophysiological platform. The parameters measured are described in the Data Analysis section. […] AM data were first exported to an Excel compatible data file and then analyzed using Graph Pad Prism software.

Query: // fetch EC50 for CNCCN(C)C(=O)Cc1c(-c2ccc(C)cc2)nc2ccc(C)cn12 [Compound 1] ; system: hGABAA α1β3γ2 (Homo sapiens, UniProt P14867+P18507+P28472)
Reply: > 1000 µM

Query: // fetch EC50 for CCN(CCNC)C(=O)CC1c2nccnc2C(=O)N1c1ccc(Cl)cn1 (centres unmarked) [Compound 5] ; system: hGABAA α1β3γ2 (Homo sapiens, UniProt P14867+P18507+P28472)
Reply: > 1000 µM

Query: // fetch EC50 for CCCN(CCNC)C(=O)Cc1c(-c2ccc(C)cc2)nc2ccc(C)cn12 [Compound 2] ; system: hGABAA α1β3γ2 (Homo sapiens, UniProt P14867+P18507+P28472)
Reply: > 1000 µM

Query: // fetch EC50 for CN(C)CCN(C)C(=O)CC1c2nccnc2C(=O)N1c1ccc(Cl)cn1 (centres unmarked) [Compound 6] ; system: hGABAA α1β3γ2 (Homo sapiens, UniProt P14867+P18507+P28472)
Reply: > 1000 µM

Query: // fetch EC50 for O=C(O)C1=CCNCC1 [Isoguvacine] ; system: hGABAA α1β3γ2 (Homo sapiens, UniProt P14867+P18507+P28472)
Reply: 19.7 µM

----------
- target of assay: hGABAA α2β3γ2 (Homo sapiens, UniProt P18507+P28472+P47869)
- Sequence (P47869 29-451): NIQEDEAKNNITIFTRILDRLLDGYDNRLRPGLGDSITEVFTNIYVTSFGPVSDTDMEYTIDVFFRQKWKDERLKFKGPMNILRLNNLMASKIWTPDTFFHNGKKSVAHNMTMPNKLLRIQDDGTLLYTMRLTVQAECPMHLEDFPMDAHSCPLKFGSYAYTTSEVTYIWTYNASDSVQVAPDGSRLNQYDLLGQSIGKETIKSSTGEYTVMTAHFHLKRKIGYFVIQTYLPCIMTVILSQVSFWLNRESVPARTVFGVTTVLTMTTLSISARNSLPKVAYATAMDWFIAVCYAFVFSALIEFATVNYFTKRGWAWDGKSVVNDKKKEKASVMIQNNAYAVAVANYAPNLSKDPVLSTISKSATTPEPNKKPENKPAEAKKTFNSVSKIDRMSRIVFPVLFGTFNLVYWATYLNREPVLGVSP
- Sequence (P28472 26-473): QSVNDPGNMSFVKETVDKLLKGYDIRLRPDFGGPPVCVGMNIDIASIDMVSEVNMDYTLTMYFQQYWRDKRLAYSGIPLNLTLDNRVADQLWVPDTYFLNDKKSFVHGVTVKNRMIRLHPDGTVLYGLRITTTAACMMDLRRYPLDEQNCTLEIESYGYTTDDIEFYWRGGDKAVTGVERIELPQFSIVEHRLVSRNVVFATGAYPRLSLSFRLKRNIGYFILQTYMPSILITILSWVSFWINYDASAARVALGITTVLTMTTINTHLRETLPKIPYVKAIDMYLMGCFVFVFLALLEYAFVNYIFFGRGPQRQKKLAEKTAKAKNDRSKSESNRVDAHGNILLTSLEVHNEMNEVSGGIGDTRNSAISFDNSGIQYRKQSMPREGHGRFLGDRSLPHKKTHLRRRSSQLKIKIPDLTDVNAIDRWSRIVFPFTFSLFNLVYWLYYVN
- Sequence (P18507 40-475): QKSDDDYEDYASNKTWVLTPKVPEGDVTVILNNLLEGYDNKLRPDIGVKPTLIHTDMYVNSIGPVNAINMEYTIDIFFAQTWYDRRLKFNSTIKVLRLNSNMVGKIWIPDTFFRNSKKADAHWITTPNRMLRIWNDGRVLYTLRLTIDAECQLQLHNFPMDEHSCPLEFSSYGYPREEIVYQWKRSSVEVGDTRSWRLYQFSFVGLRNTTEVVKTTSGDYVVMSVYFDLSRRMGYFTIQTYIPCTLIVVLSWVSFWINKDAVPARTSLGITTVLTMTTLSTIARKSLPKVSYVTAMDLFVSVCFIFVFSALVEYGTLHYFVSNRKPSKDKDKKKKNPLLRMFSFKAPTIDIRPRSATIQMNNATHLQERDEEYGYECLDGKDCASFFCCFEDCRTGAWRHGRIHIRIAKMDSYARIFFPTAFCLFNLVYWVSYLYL
- run description: hGABAA IonFlux HT PAM Assay, α2β3γ2
- Format: cell-based
- assay conditions: positive modulation of EC20 GABA current; read-out: Estimated EC50
measured endpoint: EC50
Express your answer as a number followed by its unit.

Query: Look up and report measured EC50 for this entry: CCCN(CCNC)C(=O)Cc1c(-c2ccc(Cl)cc2)nc2ccc(Cl)cn12
Reply: 1.1 µM

----------
- target of assay: hGABAA α1β3γ2 (Homo sapiens, UniProt P14867+P18507+P28472)
- run description: hGABAA α1β3γ2 IonFlux HT Agonist Assay
- Format: cell-based
- assay conditions: read-out: Normalized Percentage Activation Mean
measured endpoint: activation at 100 µM (%)
Your answer is read as %, so omit the unit and give the number.

Query: Look up and report measured activation at 100 µM for this entry: CN(C)CCN(C)C(=O)CC1c2nccnc2C(=O)N1c1ccc(Cl)cn1 (stereo not drawn) [Compound 6]
Reply: 1.95

Query: Look up and report measured activation at 100 µM for this entry: CNCCN(C)C(=O)Cc1c(-c2ccc(C)cc2)nc2ccc(C)cn12 [Compound 1]
Reply: 6.97

Query: Look up and report measured activation at 100 µM for this entry: CCCN(CCNC)C(=O)Cc1c(-c2ccc(C)cc2)nc2ccc(C)cn12 [Compound 2]
Reply: 7.1

Query: Look up and report measured activation at 100 µM for this entry: CCN(CCN(C)C)C(=O)OC1c2nccnc2C(=O)N1c1ccc(Cl)cn1 (stereo not drawn) [Compound 4]
Reply: 5.97

Query: Look up and report measured activation at 100 µM for this entry: CCN(CCNC)C(=O)CC1c2nccnc2C(=O)N1c1ccc(Cl)cn1 (stereo not drawn) [Compound 5]
Reply: 3.75

Query: Look up and report measured activation at 100 µM for this entry: CCCN(CCNC)C(=O)Cc1c(-c2ccc(Cl)cc2)nc2ccc(Cl)cn12 [Compound 3]
Reply: 3.63

----------
Assign activation at 10 µM to each entry below.
- target of assay: hGABAA α1β3γ2 (Homo sapiens, UniProt P14867+P18507+P28472)
- run description: hGABAA α1β3γ2 IonFlux HT Agonist Assay
- Assay type: cell-based
- assay conditions: read-out: Normalized Percentage Activation Mean
Your answer is read as %, so omit the unit and give the number.

Query: Look up and report measured activation at 10 µM for this entry: CN(C)CCN(C)C(=O)CC1c2nccnc2C(=O)N1c1ccc(Cl)cn1 (stereo not drawn) [Compound 6]
Reply: 1.89

Query: Look up and report measured activation at 10 µM for this entry: CCN(CCN(C)C)C(=O)OC1c2nccnc2C(=O)N1c1ccc(Cl)cn1 (stereo not drawn) [Compound 4]
Reply: 5.68

Query: Look up and report measured activation at 10 µM for this entry: CCN(CCNC)C(=O)CC1c2nccnc2C(=O)N1c1ccc(Cl)cn1 (stereo not drawn) [Compound 5]
Reply: 2.45

Query: Look up and report measured activation at 10 µM for this entry: CCCN(CCNC)C(=O)Cc1c(-c2ccc(C)cc2)nc2ccc(C)cn12 [Compound 2]
Reply: 5.37

Query: Look up and report measured activation at 10 µM for this entry: CNCCN(C)C(=O)Cc1c(-c2ccc(C)cc2)nc2ccc(C)cn12 [Compound 1]
Reply: 6.52

Query: Look up and report measured activation at 10 µM for this entry: CCCN(CCNC)C(=O)Cc1c(-c2ccc(Cl)cc2)nc2ccc(Cl)cn12 [Compound 3]
Reply: 6.3

----------
Assign Mean Maximal Effect (% of Control) to each entry below.
- target of assay: hGABAA α1β3γ2 (Homo sapiens, UniProt P14867+P18507+P28472)
- run description: hGABAA IonFlux HT PAM Assay, α1β3γ2
- Assay type: cell-based
- assay conditions: normalized to baseline peak current induced by EC20 GABA (1 μM) for 2 seconds

Query: Look up and report measured Mean Maximal Effect (% of Control) for this entry: CCN(CCNC)C(=O)CC1c2nccnc2C(=O)N1c1ccc(Cl)cn1 (stereo not drawn)
Reply: 136 % of Control

Query: Look up and report measured Mean Maximal Effect (% of Control) for this entry: Cc1ccc(-c2nc3ccc(C)cn3c2CC(=O)N(C)C)cc1
Reply: 331 % of Control

Query: Look up and report measured Mean Maximal Effect (% of Control) for this entry: CCCN(CCNC)C(=O)Cc1c(-c2ccc(Cl)cc2)nc2ccc(Cl)cn12
Reply: 331 % of Control

Query: Look up and report measured Mean Maximal Effect (% of Control) for this entry: CN(C)CCN(C)C(=O)CC1c2nccnc2C(=O)N1c1ccc(Cl)cn1 (stereo not drawn)
Reply: 130 % of Control

Query: Look up and report measured Mean Maximal Effect (% of Control) for this entry: CCN(CCN(C)C)C(=O)OC1c2nccnc2C(=O)N1c1ccc(Cl)cn1 (stereo not drawn)
Reply: 170 % of Control

Query: Look up and report measured Mean Maximal Effect (% of Control) for this entry: CN1CCN(C(=O)O[C@H]2c3nccnc3C(=O)N2c2ccc(Cl)cn2)CC1
Reply: 252 % of Control

Query: Look up and report measured Mean Maximal Effect (% of Control) for this entry: CNCCN(C)C(=O)Cc1c(-c2ccc(C)cc2)nc2ccc(C)cn12
Reply: 282 % of Control

Query: Look up and report measured Mean Maximal Effect (% of Control) for this entry: O=C(O)C1=CCNCC1
Reply: 120 % of Control

Query: Look up and report measured Mean Maximal Effect (% of Control) for this entry: CCCN(CCNC)C(=O)Cc1c(-c2ccc(C)cc2)nc2ccc(C)cn12
Reply: 354 % of Control
